Target: T1, hLig3 ZnF (human, UniProt P49916 88-206)
T1 sequence: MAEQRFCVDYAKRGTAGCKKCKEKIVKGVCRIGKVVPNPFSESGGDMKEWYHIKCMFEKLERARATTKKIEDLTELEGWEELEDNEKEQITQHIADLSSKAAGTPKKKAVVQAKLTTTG
Assay: fluorescence anisotropy; 10 mM MgCl2, 1 mM ATP; T4 DNA ligase reaction buffer: 50 mM Tris-HCl pH 7.5 (25°C), 1 mM ATP, 10 mM MgCl2; 750 pM-4 nM DNA; anisotropy temperature not stated
Settings: protein: recombinant; tags: His10; label: 3'-FAM on one strand; blunt
measurement.name: Kd (nM)
Numbers only, in nM.

Need Kd of Anisotropy 24mer dsDNA (dsDNA) DNA 1: GATCGTCCTTGGTGATCATGCATC DNA 2: GATGCATGATCACCAAGGACGATC , thanks.
21
